Target: T1, IbZnFR (CCCH-type zinc-finger protein) (Ipomoea batatas, UniProt A0A6M2VA70 1-565)
T1 sequence: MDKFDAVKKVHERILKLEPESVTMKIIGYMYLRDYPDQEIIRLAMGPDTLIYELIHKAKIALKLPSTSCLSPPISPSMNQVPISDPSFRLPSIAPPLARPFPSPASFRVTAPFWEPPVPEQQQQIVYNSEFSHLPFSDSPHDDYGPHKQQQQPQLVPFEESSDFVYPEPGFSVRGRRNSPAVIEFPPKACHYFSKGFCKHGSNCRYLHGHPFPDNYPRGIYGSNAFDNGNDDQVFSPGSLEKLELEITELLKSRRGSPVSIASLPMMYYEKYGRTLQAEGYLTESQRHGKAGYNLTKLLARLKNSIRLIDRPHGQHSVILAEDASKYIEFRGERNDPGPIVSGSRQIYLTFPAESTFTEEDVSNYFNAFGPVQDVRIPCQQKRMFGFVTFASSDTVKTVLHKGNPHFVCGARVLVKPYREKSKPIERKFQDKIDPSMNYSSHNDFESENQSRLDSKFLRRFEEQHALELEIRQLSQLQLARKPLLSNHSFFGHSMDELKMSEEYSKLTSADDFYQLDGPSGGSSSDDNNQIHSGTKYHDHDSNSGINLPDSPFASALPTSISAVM
Assay: EMSA; LightShift Chemiluminescent EMSA Kit (Thermo), manufacturer's instructions; buffer, salt, pH and temperature not stated
Conditions: protein: recombinant; tags: His (pET-28a); label: 5' biotin; blunt
observed.property: binding result

Below, 4 binders whose answers are already recorded.
>  <binder>
IbCSLE1 promoter wt probe (dsDNA) DNA 1: ATAGTCTTTGTAGGGAGACACAGACACCAT DNA 2: ATGGTGTCTGTGTCTCCCTACAAAGACTAT

>  <binding result>
binds

$$$$
>  <binder>
IbMRL7L promoter wt probe (dsDNA) DNA 1: CTTCTTATCCCTCTAACTTTCCTACA DNA 2: TGTAGGAAAGTTAGAGGGATAAGAAG

>  <binding result>
binds

$$$$
>  <binder>
IbMDAR4 promoter wt probe (dsDNA) DNA 1: ACATTTACCCGGGAGAACGGATAACG DNA 2: CGTTATCCGTTCTCCCGGGTAAATGT

>  <binding result>
binds

$$$$
>  <binder>
IbCOMT promoter wt probe (dsDNA) DNA 1: AAACCGTTCTCTCTCTTCTTCTTCATCTTC DNA 2: GAAGATGAAGAAGAAGAGAGAGAACGGTTT

>  <binding result>
binds

$$$$

Input IbPR5 promoter wt probe (dsDNA) DNA 1: ATTGTACTAAAAGGGAGAGGATACAAGGTT DNA 2: AACCTTGTATCCTCTCCCTTTTAGTACAAT . Output binding result: binds
